experiment description: endothelial E-selectin expression blockers – imaging, HUVEC, immunofluorescence, MLSMR starter and 10KST1 sets, primary screen (AID 487);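 note: signal is fraction of cell area covered by stained E-selectin grains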
setup conditions: HUVEC TNFalpha-induced E-selectin immunofluorescence imaging, at 2 µM; hits give high values
Decide using inhibition: a value greater than or equal to -30% is 1, a smaller one is -1.

Quick check, inhibition >= -30%? "Cc1ccccc1C(=O)NC1CCN(Cc2nnnn2Cc2ccccc2)CC1"
-1

Quick check, inhibition >= -30%? "O=C1C/C(=C/NCc2ccccc2)C(=O)N1"
-1

Quick check, inhibition >= -30%? "O=C(c1nn2cccnc2c1Cl)N1CCN(c2ccccc2)CC1"
-1

Quick check, inhibition >= -30%? "Oc1ccc(Nc2nc(-c3ccc(O)cc3)cs2)cc1"
1

Quick check, inhibition >= -30%? "CC(C)COc1ccc(-c2nnn(CC(=O)N3CCCC3)n2)cc1"
1
